target_entity: CDK5/p35 (Homo sapiens, UniProt Q00535)
Sequence (Q00535 whole entry): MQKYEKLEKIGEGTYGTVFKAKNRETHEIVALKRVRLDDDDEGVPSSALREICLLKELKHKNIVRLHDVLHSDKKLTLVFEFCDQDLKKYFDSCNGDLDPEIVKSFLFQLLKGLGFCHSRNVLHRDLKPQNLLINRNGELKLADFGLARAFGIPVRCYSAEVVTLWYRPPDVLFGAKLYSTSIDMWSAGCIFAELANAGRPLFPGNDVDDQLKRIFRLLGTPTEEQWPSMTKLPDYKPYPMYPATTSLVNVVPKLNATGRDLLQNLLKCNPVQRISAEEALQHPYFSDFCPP
Sequence (Q15078 whole entry partner): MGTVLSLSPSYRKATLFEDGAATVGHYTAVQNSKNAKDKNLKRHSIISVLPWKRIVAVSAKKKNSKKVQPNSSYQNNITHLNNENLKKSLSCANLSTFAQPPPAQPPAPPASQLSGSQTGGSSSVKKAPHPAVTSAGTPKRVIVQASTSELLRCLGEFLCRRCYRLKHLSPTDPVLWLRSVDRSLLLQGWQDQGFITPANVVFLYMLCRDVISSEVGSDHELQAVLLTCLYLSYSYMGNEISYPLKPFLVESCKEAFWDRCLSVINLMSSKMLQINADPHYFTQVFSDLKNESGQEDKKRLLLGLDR
assay_method_text: Hot-Spot kinase profiling
stated_conditions: Table 5 kinase profiling
measure_name: IC50

## Input Request: IC50, test system CDK5/p35 (Homo sapiens, UniProt Q00535), entry O=C(Nc1ccc(N2CCNCC2)cc1)c1n[nH]cc1Nc1ncnc2sc3c(c12)CCC3
## Output 9.64 nM

* * *

target_entity: FLT3 (Homo sapiens)
Construct: purchased Reaction Biology Corp
Sequence (P36888 27-993): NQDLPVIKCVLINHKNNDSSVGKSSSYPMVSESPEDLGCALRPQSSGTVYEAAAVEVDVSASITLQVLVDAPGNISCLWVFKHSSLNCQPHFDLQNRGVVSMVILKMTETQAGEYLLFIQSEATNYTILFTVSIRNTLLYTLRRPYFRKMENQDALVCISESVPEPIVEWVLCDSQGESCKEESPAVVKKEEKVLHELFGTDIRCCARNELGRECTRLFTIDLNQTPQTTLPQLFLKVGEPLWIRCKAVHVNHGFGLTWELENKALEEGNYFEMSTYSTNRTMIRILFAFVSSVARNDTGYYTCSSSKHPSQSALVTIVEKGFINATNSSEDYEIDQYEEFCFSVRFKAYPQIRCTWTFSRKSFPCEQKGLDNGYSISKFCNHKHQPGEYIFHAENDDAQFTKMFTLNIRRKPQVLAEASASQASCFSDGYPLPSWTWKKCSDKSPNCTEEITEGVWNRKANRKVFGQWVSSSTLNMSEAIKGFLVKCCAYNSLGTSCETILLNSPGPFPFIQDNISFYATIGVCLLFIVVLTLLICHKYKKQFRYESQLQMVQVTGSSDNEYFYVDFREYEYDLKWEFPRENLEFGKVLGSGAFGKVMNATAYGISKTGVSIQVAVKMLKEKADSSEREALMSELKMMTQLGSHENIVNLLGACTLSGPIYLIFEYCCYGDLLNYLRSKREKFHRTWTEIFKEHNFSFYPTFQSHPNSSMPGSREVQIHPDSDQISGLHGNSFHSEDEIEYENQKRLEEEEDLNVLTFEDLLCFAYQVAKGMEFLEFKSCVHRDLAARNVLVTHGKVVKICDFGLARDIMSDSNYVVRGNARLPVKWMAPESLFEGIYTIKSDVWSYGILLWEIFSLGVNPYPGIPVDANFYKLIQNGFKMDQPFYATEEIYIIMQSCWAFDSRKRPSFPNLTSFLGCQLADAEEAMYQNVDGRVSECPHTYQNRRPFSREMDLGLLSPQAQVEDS
assay_method_text: Hot-Spot kinase profiling
Format: biochemical
stated_conditions: Table 5 kinase profiling
Experimental: Activities of kinases were determined using Hot-SpotSM kinase assay which was performed by Reaction Biology Corp. (Malvern PA, USA) as described previously.
measure_name: pIC50
Lab note: report pIC50 as minus log10 of the concentration in molar units, number only.

## Input Request: pIC50, test system FLT3 (Homo sapiens), entry O=C(Nc1ccc(N2CCNCC2)cc1)c1n[nH]cc1Nc1ncnc2sc3c(c12)CCC3 [Compound 8t]
## Output 10.46

* * *

target_entity: FLT3 (ITD)-F691L (Homo sapiens, UniProt P36888, F691L/ITD)
assay_method_text: Hot-Spot kinase profiling
stated_conditions: Table 5 kinase profiling
measure_name: IC50 (nM)
A number alone suffices; assume nM.

## Input Need IC50 of O=C(Nc1ccc(N2CCNCC2)cc1)c1n[nH]cc1Nc1ncnc2sc3c(c12)CCC3 [Compound 8t] , thanks.
## Output 0.6

* * *

target_entity: FLT3 (Y591-V592insVDFREYEYD) (Homo sapiens, UniProt P36888, INS591VDFREYEYD)
Sequence (P36888 with tags, fused parts or gaps INS591VDFREYEYD limits assumed): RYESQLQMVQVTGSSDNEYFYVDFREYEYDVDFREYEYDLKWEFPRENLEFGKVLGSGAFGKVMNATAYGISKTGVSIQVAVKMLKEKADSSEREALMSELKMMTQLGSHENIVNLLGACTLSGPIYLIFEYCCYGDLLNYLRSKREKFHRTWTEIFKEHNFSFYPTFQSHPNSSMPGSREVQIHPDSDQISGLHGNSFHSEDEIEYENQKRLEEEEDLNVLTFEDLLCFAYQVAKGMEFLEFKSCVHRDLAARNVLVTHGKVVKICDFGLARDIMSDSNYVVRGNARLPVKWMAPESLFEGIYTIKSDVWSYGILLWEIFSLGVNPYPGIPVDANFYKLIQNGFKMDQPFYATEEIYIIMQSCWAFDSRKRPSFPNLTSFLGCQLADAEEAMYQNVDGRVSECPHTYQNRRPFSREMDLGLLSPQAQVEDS
assay_method_text: Hot-Spot kinase profiling
stated_conditions: Table 5 kinase profiling; read-out: IC50 FLT3 (Y591-V592ins[…])
measure_name: pIC50
Lab note: report pIC50 as minus log10 of the concentration in molar units, number only.

## Input Need pIC50 of O=C(Nc1ccc(N2CCNCC2)cc1)c1n[nH]cc1Nc1ncnc2sc3c(c12)CCC3 [Compound 8t] , thanks.
## Output 9.18

* * *

target_entity: CDK2/cyclin A (Homo sapiens, UniProt P24941)
assay_method_text: Hot-Spot kinase profiling
stated_conditions: Table 5 kinase profiling
measure_name: pIC50
Lab note: report pIC50 as minus log10 of the concentration in molar units, number only.

## Input Need pIC50 of O=C(Nc1ccc(N2CCNCC2)cc1)c1n[nH]cc1Nc1ncnc2sc3c(c12)CCC3 , thanks.
## Output 8.59

* * *

target_entity: FLT3 (F594_R595insR) (Homo sapiens, UniProt P36888, INS594R)
assay_method_text: Hot-Spot kinase profiling
stated_conditions: Table 5 kinase profiling
measure_name: pIC50
Lab note: report pIC50 as minus log10 of the concentration in molar units, number only.

## Input Need pIC50 of O=C(Nc1ccc(N2CCNCC2)cc1)c1n[nH]cc1Nc1ncnc2sc3c(c12)CCC3 , thanks.
## Output 9.20

* * *

target_entity: CDK6/cyclin D1 (Homo sapiens, UniProt Q00534)
Sequence (Q00534 whole entry): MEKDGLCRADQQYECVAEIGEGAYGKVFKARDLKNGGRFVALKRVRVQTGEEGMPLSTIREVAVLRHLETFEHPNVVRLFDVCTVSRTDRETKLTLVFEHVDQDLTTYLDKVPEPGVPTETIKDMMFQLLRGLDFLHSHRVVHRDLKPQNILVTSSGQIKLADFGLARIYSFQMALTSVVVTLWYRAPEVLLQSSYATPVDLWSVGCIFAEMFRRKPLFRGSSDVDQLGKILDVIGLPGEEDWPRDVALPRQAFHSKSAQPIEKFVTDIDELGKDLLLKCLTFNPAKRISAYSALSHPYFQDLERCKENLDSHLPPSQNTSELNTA
Sequence (P24385 whole entry partner): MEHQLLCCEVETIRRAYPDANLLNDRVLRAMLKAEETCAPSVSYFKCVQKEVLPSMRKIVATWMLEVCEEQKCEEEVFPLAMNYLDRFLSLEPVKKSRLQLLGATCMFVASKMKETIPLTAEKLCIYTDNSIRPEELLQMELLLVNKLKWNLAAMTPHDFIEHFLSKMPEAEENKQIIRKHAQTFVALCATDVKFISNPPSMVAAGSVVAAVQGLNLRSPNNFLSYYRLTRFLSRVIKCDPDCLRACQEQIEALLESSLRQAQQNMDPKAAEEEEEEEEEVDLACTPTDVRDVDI
assay_method_text: Hot-Spot kinase profiling
stated_conditions: Table 5 kinase profiling
measure_name: pIC50
Lab note: report pIC50 as minus log10 of the concentration in molar units, number only.

## Input Request: pIC50, test system CDK6/cyclin D1 (Homo sapiens, UniProt Q00534), entry O=C(Nc1ccc(N2CCNCC2)cc1)c1n[nH]cc1Nc1ncnc2sc3c(c12)CCC3 [Compound 8t]
## Output 9.23

* * *

target_entity: CDK7/cyclin H (Homo sapiens)
Sequence (P50613 whole entry): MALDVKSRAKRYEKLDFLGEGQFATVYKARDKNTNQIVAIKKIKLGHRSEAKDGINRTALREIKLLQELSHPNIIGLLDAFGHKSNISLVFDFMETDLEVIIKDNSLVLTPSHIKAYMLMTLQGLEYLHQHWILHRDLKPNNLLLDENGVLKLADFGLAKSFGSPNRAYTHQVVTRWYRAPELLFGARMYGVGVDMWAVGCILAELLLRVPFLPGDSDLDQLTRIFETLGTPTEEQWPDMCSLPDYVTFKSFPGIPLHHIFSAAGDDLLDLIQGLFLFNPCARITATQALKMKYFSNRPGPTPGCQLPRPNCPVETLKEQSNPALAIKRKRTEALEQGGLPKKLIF
Sequence (P51946 whole entry partner): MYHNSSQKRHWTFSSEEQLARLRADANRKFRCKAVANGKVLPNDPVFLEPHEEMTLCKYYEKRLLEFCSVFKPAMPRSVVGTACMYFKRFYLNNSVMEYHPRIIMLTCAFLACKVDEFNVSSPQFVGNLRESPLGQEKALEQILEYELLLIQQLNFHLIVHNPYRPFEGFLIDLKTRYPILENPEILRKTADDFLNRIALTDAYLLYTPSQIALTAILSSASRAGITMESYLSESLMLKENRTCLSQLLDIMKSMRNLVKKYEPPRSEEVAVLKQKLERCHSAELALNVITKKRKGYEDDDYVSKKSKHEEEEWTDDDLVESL
Sequence (P51948 whole entry partner): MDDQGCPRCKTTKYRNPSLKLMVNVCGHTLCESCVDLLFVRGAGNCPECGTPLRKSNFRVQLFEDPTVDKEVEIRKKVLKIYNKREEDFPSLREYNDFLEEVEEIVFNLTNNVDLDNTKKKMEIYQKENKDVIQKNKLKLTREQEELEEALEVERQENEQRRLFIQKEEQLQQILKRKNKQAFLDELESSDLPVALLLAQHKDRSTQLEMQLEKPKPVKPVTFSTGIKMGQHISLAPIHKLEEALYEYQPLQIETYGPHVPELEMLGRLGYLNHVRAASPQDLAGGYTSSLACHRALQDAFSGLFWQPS
assay_method_text: Hot-Spot kinase profiling
stated_conditions: Table 5 kinase profiling
measure_name: IC50 (nM)
A number alone suffices; assume nM.

## Input Need IC50 of O=C(Nc1ccc(N2CCNCC2)cc1)c1n[nH]cc1Nc1ncnc2sc3c(c12)CCC3 , thanks.
## Output 21.3

* * *

Each item that follows carries a reported log10 IC50.
target_entity: FLT3 (Homo sapiens)
Construct: purchased Reaction Biology Corp
assay_method_text: FLT3 kinase activity assay (Hot-Spot)
Format: biochemical
stated_conditions: 10 μM ATP; mean ± SD, three independent experiments
The base-10 logarithm of IC50, taken with IC50 in nM, is what appears here.

// worked examples, log10 IC50 included
O=C(Nc1ccc(N2CCNCC2)cn1)c1n[nH]cc1Nc1ncnc2[nH]ccc12 ... 1.14
O=C(Nc1ccc(N2CCNCC2)cn1)c1n[nH]cc1Nc1ncnc2c1CCC2 ... 1.31
O=C(Nc1ccc(N2CCNCC2)cn1)c1n[nH]cc1Nc1ncnc2sc3c(c12)CCC3 ... 0.27
O=C(Nc1ccc(N2CCOCC2)cc1)c1n[nH]cc1Nc1ncnc2[nH]ccc12 ... 0.29
CN1CCN(C(=O)c2ccc(NC(=O)c3n[nH]cc3Nc3ncnc4sccc34)cc2)CC1 ... 1.28
CN1CCCN(c2ccc(NC(=O)c3n[nH]cc3Nc3ncnc4[nH]ccc34)cc2)CC1 ... -0.58
CC(C)(C)OC(=O)N1CCC(NC(=O)c2n[nH]cc2Nc2ncnc3[nH]ccc23)CC1 ... 1.95
O=C(Nc1ccc(C(=O)N2CCOCC2)cc1)c1n[nH]cc1Nc1ncnc2sccc12 ... 1.25
O=C(Nc1ccc(N2CC3CC2CN3)cc1)c1n[nH]cc1Nc1ncnc2sc3c(c12)CCC3 (centres unmarked) ... -0.09
O=C(Nc1ccccc1)c1n[nH]cc1Nc1ncnc2[nH]ccc12 ... 0.71

## Input Need log10 IC50 of CN1CCCN(c2ccc(NC(=O)c3n[nH]cc3Nc3ncnc4sccc34)cc2)CC1 , thanks.
## Output -0.75

## Input Need log10 IC50 of O=C(Nc1ccc(N2CCNCC2)cn1)c1n[nH]cc1Nc1ncnc2sccc12 , thanks.
## Output 0.78

* * *

target_entity: FLT4/VEGFR3 (Homo sapiens, UniProt P35916)
Sequence (P35916 25-1363): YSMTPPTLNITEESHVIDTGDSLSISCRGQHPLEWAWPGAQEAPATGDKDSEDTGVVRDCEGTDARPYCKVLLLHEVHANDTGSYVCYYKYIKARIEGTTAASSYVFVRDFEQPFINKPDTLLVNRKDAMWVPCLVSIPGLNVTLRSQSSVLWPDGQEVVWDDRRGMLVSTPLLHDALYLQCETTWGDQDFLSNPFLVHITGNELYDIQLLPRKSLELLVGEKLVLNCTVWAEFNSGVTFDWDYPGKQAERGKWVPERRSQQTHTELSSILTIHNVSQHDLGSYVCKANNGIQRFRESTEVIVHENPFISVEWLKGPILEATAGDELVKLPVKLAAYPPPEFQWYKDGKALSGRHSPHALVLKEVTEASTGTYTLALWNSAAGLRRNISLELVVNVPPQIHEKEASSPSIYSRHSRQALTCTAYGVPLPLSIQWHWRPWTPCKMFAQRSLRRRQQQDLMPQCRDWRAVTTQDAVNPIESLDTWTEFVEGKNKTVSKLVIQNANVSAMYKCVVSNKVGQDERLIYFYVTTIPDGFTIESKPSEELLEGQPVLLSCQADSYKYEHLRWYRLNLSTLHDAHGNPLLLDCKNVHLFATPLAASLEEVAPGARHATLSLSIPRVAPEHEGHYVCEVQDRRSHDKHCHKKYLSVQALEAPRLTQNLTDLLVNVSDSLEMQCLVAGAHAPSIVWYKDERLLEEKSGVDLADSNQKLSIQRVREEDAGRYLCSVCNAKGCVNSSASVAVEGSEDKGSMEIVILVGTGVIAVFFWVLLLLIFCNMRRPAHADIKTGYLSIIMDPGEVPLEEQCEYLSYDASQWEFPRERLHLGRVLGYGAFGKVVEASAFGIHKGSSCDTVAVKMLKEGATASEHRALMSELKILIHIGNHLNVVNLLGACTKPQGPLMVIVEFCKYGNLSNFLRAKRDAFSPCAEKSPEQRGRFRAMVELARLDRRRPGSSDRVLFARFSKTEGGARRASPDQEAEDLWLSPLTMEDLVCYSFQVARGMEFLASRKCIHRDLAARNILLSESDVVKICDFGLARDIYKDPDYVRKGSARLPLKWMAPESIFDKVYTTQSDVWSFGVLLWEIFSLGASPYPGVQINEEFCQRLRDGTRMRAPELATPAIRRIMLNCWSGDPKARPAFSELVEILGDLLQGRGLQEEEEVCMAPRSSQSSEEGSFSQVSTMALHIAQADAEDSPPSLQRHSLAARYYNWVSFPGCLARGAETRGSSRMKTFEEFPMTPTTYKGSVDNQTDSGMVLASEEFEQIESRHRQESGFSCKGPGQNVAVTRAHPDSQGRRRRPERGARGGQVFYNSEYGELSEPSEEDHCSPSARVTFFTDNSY
assay_method_text: Hot-Spot kinase profiling
stated_conditions: Table 5 kinase profiling
measure_name: pIC50
Lab note: report pIC50 as minus log10 of the concentration in molar units, number only.

## Input Need pIC50 of O=C(Nc1ccc(N2CCNCC2)cc1)c1n[nH]cc1Nc1ncnc2sc3c(c12)CCC3 [Compound 8t] , thanks.
## Output 8.38

Sourced from paper PMC6887723
